Recorded interaction data at Target Concentration 300 for the following sequences
target: MDM2 (Homo sapiens, UniProt Q00987); construct: made in house; experiment: Naive Library Presenter Screening (phage, NGS), MDM2; format: binding; settings: MDM2 clusters (C82, C85); target concentration 300 nM
Sequence (Q00987 25-109): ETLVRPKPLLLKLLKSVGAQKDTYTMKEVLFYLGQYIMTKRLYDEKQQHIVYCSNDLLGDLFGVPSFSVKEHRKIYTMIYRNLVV
Numbered stars: 1 amine (or outer) side, 2 acyl side, 3 side chain; on linkers, the order of the positions; unused ones are H or OH. Bridge positions count the residues as written; N and C are the ends. Ends that are not written are not given here. Phenylene(1,4-NHCOCH2)2 = O=C(C[*:1])Nc1ccc(NC(=O)C[*:2])cc1
OUTCOME_MEASURE: interaction data at Target Concentration 300

residue_string="DPAINTCQDAAFWCYWS (linker 7-14 via Phenylene(1,4-NHCOCH2)2 (inferred))" reported_value=226
residue_string="DPAETDCSQAAFWCYWQ (linker 7-14 via Phenylene(1,4-NHCOCH2)2 (inferred))" reported_value=133
residue_string="DPAAVQCNTAAFQCYWF (linker 7-14 via Phenylene(1,4-NHCOCH2)2 (inferred))" reported_value=56
residue_string="DPAHRQCFTAAWRCMMT (linker 7-14 via Phenylene(1,4-NHCOCH2)2 (inferred))" reported_value=156
residue_string="DPARRECMDAAFWCQWV (DPARRECMDAAFWCQWV-NH2; linker 7-14 via Phenylene(1,4-NHCOCH2)2 (inferred))" reported_value=232
residue_string="DPAYTQCSDAAFMCWWW (linker 7-14 via Phenylene(1,4-NHCOCH2)2 (inferred))" reported_value=48
residue_string="DPATESCEDAAFWCHWI (DPATESCEDAAFWCHWI-NH2; linker 7-14 via Phenylene(1,4-NHCOCH2)2 (inferred))" reported_value=30
residue_string="DPARVHCNQAAFMCHWV (DPARVHCNQAAFMCHWV-NH2; linker 7-14 via Phenylene(1,4-NHCOCH2)2 (inferred))" reported_value=6
residue_string="DPARQDCFSAAWMCMAI (DPARQDCFSAAWMCMAI-NH2; linker 7-14 via Phenylene(1,4-NHCOCH2)2 (inferred))" reported_value=107
residue_string="DPAVTECFQAAWRCMVM (linker 7-14 via Phenylene(1,4-NHCOCH2)2 (inferred); not fully specified (C-terminus))" reported_value=276
residue_string="DPAQQDCFLAAWDCVWQ (DPAQQDCFLAAWDCVWQ-NH2; linker 7-14 via Phenylene(1,4-NHCOCH2)2 (inferred))" reported_value=166
residue_string="DPADRDCFSAAWACVIR (linker 7-14 via Phenylene(1,4-NHCOCH2)2 (inferred))" reported_value=209
residue_string="DPAQEDCHAAAFWCIWD (DPAQEDCHAAAFWCIWD-NH2; linker 7-14 via Phenylene(1,4-NHCOCH2)2 (inferred))" reported_value=37
residue_string="DPAHQQCFMAAWRCVVH (linker 7-14 via Phenylene(1,4-NHCOCH2)2 (inferred))" reported_value=375
